All figures here come from patent US20230159436A1.

- System: U2OS, H460, HTB-9, ES2, HCT116, Capan, OVCAR3, DU145, SK-Mel-5, KB, A498, MCF-7, HepG2, T98G, K562, HeLa
- test method notes: MTT Cytotoxic Assay of reaction products and isolated compounds
- Format: cell-based

>  <molecule>
CC=CC(=O)NCC1(C)C(O)CCC2(C)C1CCC1(C)C2CC=C2C3CC(C)(C)C(O)C(O)C3(CNC(=O)C=CC)C(O)CC21C (centres unmarked)

>  <Cytotoxicity activity>
strong

$$$$
>  <molecule>
CC(C)C(=O)NCC1(C)C(N)CCC2(C)C1CCC1(C)C2CC=C2C3CC(C)(C)C(NC(=O)C(C)C)C(N)C3(CN)C(N)CC21C (centres unmarked)

>  <Cytotoxicity activity>
moderate

$$$$
>  <molecule>
CCCCCC(=O)NCC1(C)C(O)CCC2(C)C1CCC1(C)C2CC=C2C3CC(C)(C)C(O)C(O)C3(CNC(=O)CCCCC)C(O)CC21C (centres unmarked)

>  <Cytotoxicity activity>
strong

$$$$
>  <molecule>
CC1(C)CC2C3=CCC4C5(C)CCC(N)C(C)(CNC(=O)c6ccccc6)C5CCC4(C)C3(C)CC(N)C2(CN)C(N)C1NC(=O)c1ccccc1 (centres unmarked)

>  <Cytotoxicity activity>
moderate

$$$$
>  <molecule>
CC(C)=CC(=O)NCC1(C)C(N)CCC2(C)C1CCC1(C)C2CC=C2C3CC(C)(C)C(NC(=O)C=C(C)C)C(N)C3(CN)C(N)CC21C (centres unmarked)

>  <Cytotoxicity activity>
moderate

$$$$
>  <molecule>
CC(=O)NCC1(C)C(O)CCC2(C)C1CCC1(C)C2CC=C2C3CC(C)(C)C(O)C(O)C3(CNC(C)=O)C(O)CC21C (centres unmarked)

>  <Cytotoxicity activity>
strong

$$$$
>  <molecule>
CCC(=O)NCC1(C)C(N)CCC2(C)C1CCC1(C)C2CC=C2C3CC(C)(C)C(N)C(N)C3(CNC(=O)CC)C(N)CC21C (centres unmarked)

>  <Cytotoxicity activity>
moderate

$$$$
>  <molecule>
CC(C)=CC(=O)NCC1(C)C(N)CCC2(C)C1CCC1(C)C2CC=C2C3CC(C)(C)C(NC(=O)C=C(C)C)C(N)C3(CNC(=O)C=C(C)C)C(N)CC21C (centres unmarked)

>  <Cytotoxicity activity>
weak

$$$$
>  <molecule>
CCCCCC(=O)NCC1(C)C(N)CCC2(C)C1CCC1(C)C2CC=C2C3CC(C)(C)C(N)C(N)C3(CNC(=O)CCCCC)C(N)CC21C (centres unmarked)

>  <Cytotoxicity activity>
moderate

$$$$
>  <molecule>
CCC(CC)C(=O)NCC1(C)C(O)CCC2(C)C1CCC1(C)C2CC=C2C3CC(C)(C)C(O)C(O)C3(CNC(=O)C(CC)CC)C(O)CC21C (centres unmarked)

>  <Cytotoxicity activity>
strong

$$$$
>  <molecule>
CCCC(=O)NCC1(C)C(N)CCC2(C)C1CCC1(C)C2CC=C2C3CC(C)(C)C(N)C(N)C3(CNC(=O)CCC)C(N)CC21C (centres unmarked)

>  <Cytotoxicity activity>
moderate

$$$$
>  <molecule>
CC(C)=CC(=O)NCC1(C)C(N)CCC2(C)C1CCC1(C)C2CC=C2C3CC(C)(C)C(N)C(N)C3(CNC(=O)C=C(C)C)C(N)CC21C (centres unmarked)

>  <Cytotoxicity activity>
moderate

$$$$
>  <molecule>
CC(C)C(=O)NCC1(C)C(O)CCC2(C)C1CCC1(C)C2CC=C2C3CC(C)(C)C(O)C(O)C3(CNC(=O)C(C)C)C(O)CC21C (centres unmarked)

>  <Cytotoxicity activity>
strong

$$$$
>  <molecule>
CC(=O)NCC1(C)C(N)CCC2(C)C1CCC1(C)C2CC=C2C3CC(C)(C)C(NC(C)=O)C(N)C3(CNC(C)=O)C(N)CC21C (centres unmarked)

>  <Cytotoxicity activity>
weak

$$$$
>  <molecule>
CCCCCC(=O)NCC1(C)C(N)CCC2(C)C1CCC1(C)C2CC=C2C3CC(C)(C)C(NC(=O)CCCCC)C(N)C3(CNC(=O)CCCCC)C(N)CC21C (centres unmarked)

>  <Cytotoxicity activity>
weak

$$$$
>  <molecule>
CC1(C)CC2C3=CCC4C5(C)CCC(O)C(C)(CNC(=O)c6ccccc6)C5CCC4(C)C3(C)CC(O)C2(CNC(=O)c2ccccc2)C(O)C1O (centres unmarked)

>  <Cytotoxicity activity>
strong

$$$$
>  <molecule>
CC1(C)CC2C3=CCC4C5(C)CCC(N)C(C)(CNC(=O)C=Cc6ccccc6)C5CCC4(C)C3(C)CC(N)C2(CNC(=O)C=Cc2ccccc2)C(N)C1NC(=O)C=Cc1ccccc1 (centres unmarked)

>  <Cytotoxicity activity>
weak

$$$$
>  <molecule>
CC=C(C)C(=O)NCC1(C)C(N)CCC2(C)C1CCC1(C)C2CC=C2C3CC(C)(C)C(N)C(N)C3(CNC(=O)C(C)=CC)C(N)CC21C (centres unmarked)

>  <Cytotoxicity activity>
moderate

$$$$
>  <molecule>
C=CC(=O)NCC1(C)C(O)CCC2(C)C1CCC1(C)C2CC=C2C3CC(C)(C)C(O)C(O)C3(CNC(=O)C=C)C(O)CC21C (centres unmarked)

>  <Cytotoxicity activity>
strong

$$$$
>  <molecule>
CCCCCC(=O)NCC1(C)C(N)CCC2(C)C1CCC1(C)C2CC=C2C3CC(C)(C)C(NC(=O)CCCCC)C(N)C3(CN)C(N)CC21C (centres unmarked)

>  <Cytotoxicity activity>
moderate

$$$$
